# System: B. cereus (+)
# EXPERIMENTAL_DETAILS: Antibacterial MIC test (CLSI)
# Assay type: cell-based
# MEASUREMENT_SETUP: MHB liquid medium, 37° C., 24 hours
ASSAY_READOUT: MIC B. cereus (+) (µg/mL)
Only the number, expressed in µg/mL, is required.

Prompt line: Entry CCCCC(N)C(=O)NCCc1ccc(-c2ccc(Cl)c(Cl)c2)cc1.Cl (racemic) [Compound 75] has what MIC B. cereus (+)?
Response line: 16

Prompt line: CCCCC(N)C(=O)NCc1ccc(-c2ccc(Cl)c(Cl)c2)cc1.Cl (racemic) [Compound 46] ?
Response line: 16

Prompt line: CCn1cc(C(=O)O)c(=O)c2cc(F)c(N3CCNCC3)cc21 [Nofloxacin, reference compound] ?
Response line: 1

Prompt line: CCCC(NC)C(=O)NCc1ccc(-c2ccc(Cl)c(Cl)c2)cc1.Cl (racemic) [Compound 51] ?
Response line: 32

Prompt line: CCCCC(NC)C(=O)NCCc1ccc(-c2ccc(Cl)c(Cl)c2)cc1.Cl (racemic) [Compound 85] ?
Response line: 32

* * *

# Test system: B. cereus (+)
# EXPERIMENTAL_DETAILS: Antibacterial MIC test (CLSI)
# Format: cell-based
# MEASUREMENT_SETUP: MHB liquid medium, 37° C., 24 hours
Exercise: state measured MIC B. cereus (+) for each of the molecules provided.
Only the number, expressed in µg/mL, is required.

Prompt line: Entry CCCCC(N)C(=O)NCCc1ccc(-c2ccc(OC(F)(F)F)cc2)cc1.Cl (racemic) has what MIC B. cereus (+)?
Response line: 16

Prompt line: CCC(N)C(=O)NCCc1ccc(-c2ccc(C(F)(F)F)cc2)cc1.Cl (racemic) ?
Response line: 64

Prompt line: CCCCC(N)C(=O)NCCc1ccc(-c2ccc(C(F)(F)F)cc2)cc1.Cl (racemic) ?
Response line: 16

Prompt line: CCCC(N)C(=O)NCCc1ccc(-c2ccc(Cl)c(Cl)c2)cc1.Cl (racemic) ?
Response line: 16

Prompt line: CCCC(NC)C(=O)Nc1ccc(-c2ccc(Cl)c(Cl)c2)cc1.Cl (racemic) ?
Response line: 8

Prompt line: CCC(N)C(=O)NCCc1ccc(-c2ccc(OC(F)(F)F)cc2)cc1.Cl (racemic) ?
Response line: 64

Prompt line: CCCCC(NC)C(=O)NCCc1ccc(-c2ccc(OC(F)(F)F)cc2)cc1.Cl (racemic) ?
Response line: 16

Prompt line: CCC(NC)C(=O)NCCc1ccc(-c2ccc(C(F)(F)F)cc2)cc1.Cl (racemic) ?
Response line: 64

Prompt line: CCCC(N)C(=O)Nc1ccc(-c2ccc(Cl)c(Cl)c2)cc1.Cl (racemic) ?
Response line: 32

Prompt line: CCCC(NC)C(=O)NCCc1ccc(-c2ccc(Cl)c(Cl)c2)cc1.Cl (racemic) ?
Response line: 32

* * *

# Test system: S. aureus (+)
# MEASUREMENT_SETUP: MHB liquid medium, 37° C., 24 hours
# Description: The antibacterial activities against Gram-positive bacteria, Gram-negative bacteria or multi-drug resistant bacteria were evaluated for the compounds of the present invention. The MIC test was conducted in accordance CLSI guidelines. […] Subsequently, bacterial cells were incubated at 37° C. for 24 hours, and then the MICs (μg/ ? ) were determined by visual reading and optical density detection at 600 nm (OD600). […]
Exercise: state measured MIC S. aureus (+) for each of the compounds provided.
Only the number, expressed in µg/mL, is required.

Prompt line: Entry CCC(NC)C(=O)NCCc1ccc(-c2ccc(OC(F)(F)F)cc2)cc1.Cl (racemic) has what MIC S. aureus (+)?
Response line: 32

Prompt line: CCC(N)C(=O)NCCc1ccc(-c2ccc(Cl)c(Cl)c2)cc1.Cl (racemic) ?
Response line: 8

Prompt line: CCCCC(N)C(=O)NCCc1ccc(-c2ccc(Cl)c(Cl)c2)cc1.Cl (racemic) ?
Response line: 8

Prompt line: CCCC(NC)C(=O)NCCc1ccc(-c2ccc(Cl)c(Cl)c2)cc1.Cl (racemic) ?
Response line: 16

Prompt line: CCCCC(NC)C(=O)NCCc1ccc(-c2ccc(Cl)c(Cl)c2)cc1.Cl (racemic) ?
Response line: 16

Prompt line: CCC(NC)C(=O)Nc1ccc(-c2ccc(Cl)c(Cl)c2)cc1.Cl (racemic) ?
Response line: 8

Prompt line: CCCCC(N)C(=O)NCc1ccc(-c2ccc(Cl)c(Cl)c2)cc1.Cl (racemic) ?
Response line: 8

Prompt line: CCCC(N)C(=O)Nc1ccc(-c2ccc(Cl)c(Cl)c2)cc1.Cl (racemic) ?
Response line: 16

Prompt line: CCCCC(N)C(=O)NCCc1ccc(-c2ccc(OC(F)(F)F)cc2)cc1.Cl (racemic) ?
Response line: 8

Prompt line: CCCC(NC)C(=O)NCc1ccc(-c2ccc(Cl)c(Cl)c2)cc1.Cl (racemic) ?
Response line: 16

Prompt line: CCCCC(NC)C(=O)NCCc1ccc(-c2ccc(C(F)(F)F)cc2)cc1.Cl (racemic) ?
Response line: 8

Prompt line: CCC(NC)C(=O)NCCc1ccc(-c2ccc(C(F)(F)F)cc2)cc1.Cl (racemic) ?
Response line: 32

Prompt line: CCCCC(NC)C(=O)Nc1ccc(-c2ccc(Cl)c(Cl)c2)cc1.Cl (racemic) ?
Response line: 8

Prompt line: CCCC(N)C(=O)NCCc1ccc(-c2ccc(Cl)c(Cl)c2)cc1.Cl (racemic) ?
Response line: 8

Prompt line: CCC(N)C(=O)NCCc1ccc(-c2ccc(C(F)(F)F)cc2)cc1.Cl (racemic) ?
Response line: 32

Prompt line: CCCCC(NC)C(=O)NCCc1ccc(-c2ccc(OC(F)(F)F)cc2)cc1.Cl (racemic) ?
Response line: 8

Prompt line: CCC(N)C(=O)NCCc1ccc(-c2ccc(OC(F)(F)F)cc2)cc1.Cl (racemic) ?
Response line: 16

Prompt line: CCCCC(N)C(=O)NCCc1ccc(-c2ccc(C(F)(F)F)cc2)cc1.Cl (racemic) ?
Response line: 8
